A collection of compounds and their measured Maximum emissive wavelength
experimental protocol: Absorptive and emissive wavelength maxima and fluorescence of the compounds of Examples C to I
Format: physicochemical
condition parameters: measured in methanol
Write the number in nm without appending the unit.

> print(dat)
                                   compound                quantity.name  unit.descriptor  reported.result
1    F[B-]1(F)N2C=CC=CC2=Cc2sc3ccccc3[n+]21  Maximum emissive wavelength               nm              476
2  F[B-]1(F)N2C(=Cc3sc4ccccc4[n+]31)Oc1ccccc12  Maximum emissive wavelength               nm              414
3    N#CC1=C2C=CC=CN2[B-](F)(F)[n+]2ccccc21  Maximum emissive wavelength               nm              460
4  O=C(O)Cc1ccc2c(c1)N1C(=Cc3oc4ccc(CC(=O)O)cc4[n+]3[B-]1(F)F)O2  Maximum emissive wavelength               nm              386
5  F[B-]1(F)N2C(=Cc3ccc4ccccc4[n+]31)C=Cc1ccccc12 [Example H, Bis-Quinolinemethene Borondifluoride]  Maximum emissive wavelength               nm              518

Okay, next one:
stdin: Using known records, supply Maximum emissive wavelength for `F[B-]1(F)N2C(=Cc3ccc4ccccc4[n+]31)Sc1ccccc12`
stdout: 492
